Assayed target: α1L-adrenergic receptor (α1A-adrenergic receptor / CRELD1α complex) in α1L cells (Homo sapiens)
Construct: the coding region of the ADRA1A gene was subcloned into the EcoRI restriction enzyme site of the multicloning site A of the pIRES
Protocol notes: Whole-cell [3H]-silodosin binding in α1L cells (CHO-K1 coexpressing ADRA1A and CRELD1α)
Description: The vector was amplified/purified in a conventional method, and then transfected into CHO-K1 cells, which are cells of Chinese Hamster ovarian origin, with Lipofectamine 2000 (Invitrogen Corporation) according to the manufacturer's protocol. […] The stable clone was studied by a pharmacological binding method with [^3H]-silodosin, which is a radioligand. […] The non-specific binding was evaluated as binding in the presence of 30 μM phenotolamine. […]
Value type: Ki

Task item: Field request: Ki | item: CC(C)(Cc1c[nH]c2ccc(Cl)cc12)NCCOc1ccccc1OCC1CC1.Cl [RS-17053, hydrochloride]
Reply: > 1000 nM

* * *

Assayed target: α1L-adrenergic receptors in human prostate tissue segments (Homo sapiens, UniProt P35348)
Sequence (P35348 1-466): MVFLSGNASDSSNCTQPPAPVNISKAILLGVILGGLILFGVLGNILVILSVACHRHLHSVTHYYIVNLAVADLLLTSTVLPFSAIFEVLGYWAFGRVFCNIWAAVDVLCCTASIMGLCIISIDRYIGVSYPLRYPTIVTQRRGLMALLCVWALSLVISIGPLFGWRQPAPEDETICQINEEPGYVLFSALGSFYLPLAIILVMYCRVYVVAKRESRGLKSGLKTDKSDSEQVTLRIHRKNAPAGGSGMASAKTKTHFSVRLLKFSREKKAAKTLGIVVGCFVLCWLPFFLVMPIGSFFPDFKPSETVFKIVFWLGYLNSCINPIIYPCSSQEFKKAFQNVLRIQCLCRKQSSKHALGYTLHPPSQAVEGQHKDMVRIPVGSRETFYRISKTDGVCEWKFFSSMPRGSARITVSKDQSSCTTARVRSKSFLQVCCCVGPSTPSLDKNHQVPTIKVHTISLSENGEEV
Value type: Ki (nM)
Please state the figure in nM; there is no need to write the unit.

Task item: GET /values?readout=Ki&system=α1L-adrenergic receptors in human prostate tissue segments (Homo sapiens, UniProt P35348)&item= CC(C)(Cc1c[nH]c2ccc(Cl)cc12)NCCOc1ccccc1OCC1CC1.Cl [RS-17053, hydrochloride]
Reply: 251

* * *

Assayed target: α1A-adrenergic receptor in α1A cells (Homo sapiens, UniProt P35348)
Construct: the coding region of the ADRA1A gene was subcloned into the EcoRI restriction enzyme site of the multicloning site A of the pIRES
Protocol notes: Whole-cell [3H]-silodosin binding in α1A cells (CHO-K1 expressing only ADRA1A)
Value type: pKi
Expect pKi as a plain number equal to -log10 of the molar concentration.

Task item: Lab note: need pKi with α1A-adrenergic receptor in α1A cells (Homo sapiens, UniProt P35348) for entry CC(C)(Cc1c[nH]c2ccc(Cl)cc12)NCCOc1ccccc1OCC1CC1.Cl [RS-17053, hydrochloride] , please look it up.
Reply: 8.80
